- assay-procedure: Toxicity liver stage against HepG2, at 10uM
- Format: cell-based
- Set-up: test concentration 10 uM, cell line HepG2-A16-CD81EGFP
- measurement-setup: human, HepG2-A16-CD81EGFP cells; read-out: INHIBITION
property-measured: cytotoxicity at 10 µM (%)
Note: unit % is implicit; provide only the numeric part.

Example entries and their recorded answers appear below.
{"columns": ["compound", "unit", "cytotoxicity at 10 µM"],
 "data": [
  ["Cc1cccc(CN2C[C@@H]3CN(C(=O)c4ccco4)C[C@@H]3C2=O)n1", "%", -0.42],
  ["Cc1c(-c2cc(C(=O)N3CCc4ncc(Cl)cc4C3)on2)cnn1C", "%", -3.07],
  ["CCOCCN1CCCC1CS(N)(=O)=O (stereo unspecified)", "%", 14.3]
]}

// query Field request: cytotoxicity at 10 µM | item: `CN1C[C@@H](NC(=O)C(C)(C)C)C[C@H]1C(=O)NCc1ncc[nH]1`
// result 0.452

// query One more compound: `CCOCCn1c(=O)n(CCC=C(C)C)c2cc(C(=O)O)cnc21`
// result -2.85

// query How about this compound: CCC(CC)NC(=O)c1ccc2nnc(C3CCN(S(C)(=O)=O)C3)n2c1 (stereo unspecified)
// result 3.25
